Taken from ChEMBL document CHEMBL1125426.

For each entry below, report its Selectivity ratio value.
# measurement_target: Muscarinic acetylcholine receptor M1 and M3 (Homo sapiens) (UniProt P20309+P11229)
# Sequence (P11229 whole entry, looked up): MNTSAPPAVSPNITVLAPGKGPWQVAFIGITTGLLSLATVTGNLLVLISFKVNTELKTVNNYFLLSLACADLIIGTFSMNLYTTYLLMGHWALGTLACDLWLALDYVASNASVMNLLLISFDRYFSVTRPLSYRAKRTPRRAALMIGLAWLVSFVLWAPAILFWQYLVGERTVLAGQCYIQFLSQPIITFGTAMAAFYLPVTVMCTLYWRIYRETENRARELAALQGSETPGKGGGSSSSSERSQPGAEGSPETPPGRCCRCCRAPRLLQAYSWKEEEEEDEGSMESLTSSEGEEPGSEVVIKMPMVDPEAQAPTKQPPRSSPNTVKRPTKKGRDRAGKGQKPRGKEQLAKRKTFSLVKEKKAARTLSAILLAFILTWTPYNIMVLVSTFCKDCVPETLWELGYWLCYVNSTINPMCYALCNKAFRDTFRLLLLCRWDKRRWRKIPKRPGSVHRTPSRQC
# Sequence (P20309 whole entry, looked up): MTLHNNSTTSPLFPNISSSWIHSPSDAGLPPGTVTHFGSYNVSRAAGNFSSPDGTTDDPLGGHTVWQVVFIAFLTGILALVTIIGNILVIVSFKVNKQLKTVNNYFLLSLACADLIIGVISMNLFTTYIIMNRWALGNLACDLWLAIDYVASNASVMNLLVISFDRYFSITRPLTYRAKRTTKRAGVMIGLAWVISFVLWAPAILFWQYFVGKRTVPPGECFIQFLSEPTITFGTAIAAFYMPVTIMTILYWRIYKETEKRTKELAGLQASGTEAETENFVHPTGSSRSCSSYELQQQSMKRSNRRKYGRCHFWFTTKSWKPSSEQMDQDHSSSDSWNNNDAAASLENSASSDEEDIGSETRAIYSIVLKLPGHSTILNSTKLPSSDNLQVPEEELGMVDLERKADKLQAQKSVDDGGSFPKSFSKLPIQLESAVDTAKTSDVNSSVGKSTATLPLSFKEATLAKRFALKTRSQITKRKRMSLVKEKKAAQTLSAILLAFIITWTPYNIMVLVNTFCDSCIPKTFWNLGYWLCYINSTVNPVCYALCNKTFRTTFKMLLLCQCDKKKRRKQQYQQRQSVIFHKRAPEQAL
# assay_details: Selectivity index is defined as the ratio of Ki value for m1 receptor / Ki value for m3 receptor
# Type: protein assay
Give only the figure.

Can you share its Selectivity ratio? I mean this molecule: CCN(CC)CCCOC(=O)C(C)(c1ccccc1)C1CCCCC1 (centres undefined) 1.4

# query: Selectivity ratio of entry CN(C)CCCOC(=O)C(C)(c1ccccc1)C1CCCCC1 (centres undefined) 0.9

Which value of Selectivity ratio has been reported for CCN(CC)CCOC(=O)C(C)(c1ccccc1)C1CCCCC1 (centres undefined) in the records? 2.5

Param item = CCN(CC)CCCCCOC(=O)C(C)(c1ccccc1)C1CCCCC1 (centres undefined) ; retrieve measured Selectivity ratio. 0.6
